# target-or-system: CMKLR1 (recombinant, species not given)
# protocol-notes: cell-based or functional assay
Non-standard residues stand in square brackets, D forms with d. No end group written: not given here. Tic = O=C(O)[C@@H]1Cc2ccccc2CN1
CMKLR1 canonical Gαi signal transduction, EC50 (BSA) (wash × 3) overview
Expressed in µM, but write only the number.

{"binder": "[dY]FLP[dS]QF[dA][Tic]S (also: C14:1 lipid tail, linker and attachment not given here) [C14:1 lipidated stable chemerin 9 analog]", "reported-value": 1.82}
{"binder": "[dY]FLP[dS]QF[dA][Tic]S (also: cholesterol lipid tail, linker and attachment not given here) [Cholesterol lipidated stable chemerin 9 analog]", "reported-value": 13.5}
{"binder": "[dY]FLP[dS]QF[dA][Tic]S (also: C16:1 lipid tail, linker and attachment not given here) [C16:1 lipidated stable chemerin 9 analog]", "reported-value": 3.14}
{"binder": "[dY]FLP[dS]QF[dA][Tic]S (also: C16 (palmitic acid) lipid tail, linker and attachment not given here) [C16 lipidated stable chemerin 9 analog]", "reported-value": 0.52}

From here, focus on the item given below.
[dY]FLP[dS]QF[dA][Tic]S (also: C18:1 lipid tail (which C18:1 acid not given here), linker and attachment not given here) [C18:1 lipidated stable chemerin 9 analog] yielded CMKLR1 canonical Gαi signal transduction, EC50 (BSA) (wash × 3) of 2.86
